Target: T1, recombinant GST-Grb2 SH2 protein (UniProt P62993 60-152)
T1 construct: not shown: glutathione S-transferase (GST) fusion partner
T1 sequence (P62993 60-152): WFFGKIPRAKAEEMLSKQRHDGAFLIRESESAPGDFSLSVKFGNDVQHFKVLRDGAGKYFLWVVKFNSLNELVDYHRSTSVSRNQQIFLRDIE
Experiment: Biacore SPR competition; inhibitor mixed with GST-Grb2 SH2 (150-250 nM), binding to immobilised biotin-SHC(pTyr-317)-9-mer as competitor
Bridges are numbered along the chain shown (N, C = ends). [ ]: non-standard residue; d: D form. Gla = N[C@@H](CC(C(=O)O)C(=O)O)C(=O)O; Aad = N[C@@H](CCCC(=O)O)C(=O)O
readout.label: pIC50
In textbook form, pIC50 equals minus log to base ten of the concentration in mol/L.

Which measured pIC50 value corresponds to {CH2CO}-[Gla]LYENVGMYC-NH2 (thioether N-10; SMILES CSCC[C@@H]1NC(=O)CNC(=O)[C@H](C(C)C)NC(=O)[C@H](CC(N)=O)NC(=O)[C@H](CCC(=O)O)NC(=O)[C@H](Cc2ccc(O)cc2)NC(=O)[C@H](CC(C)C)NC(=O)[C@H](CC(C(=O)O)C(=O)O)NC(=O)CSC[C@@H](C(N)=O)NC(=O)[C@H](Cc2ccc(O)cc2)NC1=O, Synthetic thioether-cyclised, non-phosphorylated peptide (L = S)) [cyclo(CH2CO-Gla1-Leu2-Tyr3-Glu4-Asn5-Val6-Gly7-Met8-Tyr9-Cys)-amide] ?
6.19

Continue with {CH2CO}-[Aad]LY[Aad]NVGMYC-NH2 (thioether N-10, Synthetic thioether-cyclised, non-phosphorylated peptide) [cyclo(CH2CO-Adi1-Leu2-Tyr3-Adi4-Asn5-Val6-Gly7-Met8-Tyr9-Cys)-amide]
5.52

Continue with {CH2CO}-[Aad]LYENVGMYC-NH2 (thioether N-10, Synthetic thioether-cyclised, non-phosphorylated peptide) [cyclo(CH2CO-Adi1-Leu2-Tyr3-Glu4-Asn5-Val6-Gly7-Met8-Tyr9-Cys)-amide]
5.46
